# Test system: xylene-induced ear swelling in Kunming mice
# Assay: Xylene-induced ear swelling in mice
# Assay type: in vivo, mouse
# Measurement Setup: 40 mg/kg once daily for 5 days; ear swelling vs control
Where no end group is shown, it is not given here.
The reader will find reported Inhibition rate values listed item by item below.
Lab book: enter the figure in %, no units written.

Completed entries (count: 4):
mPEG-bALD40k-Arg-Gly-Ala-Asp-Arg-Ala-Gly-Gly-Gly-Gly-Arg-Gly-Asp ({mPEG‑bALD 40 kDa}-RGADRAGGGGRGD) [mPEG-bALD40k-HM-1]: 13.45
mPEG-ALD10k-Arg-Gly-Ala-Asp-Arg-Ala-Gly-Gly-Gly-Gly-Arg-Gly-Asp ({mPEG‑ALD 10 kDa}-RGADRAGGGGRGD) [mPEG-ALD10k-HM-1]: 41.58
mPEG2-NHS20k-Arg-Gly-Ala-Asp-Arg-Ala-Gly-Gly-Gly-Gly-Arg-Gly-Asp ({mPEG2‑NHS 20 kDa}-RGADRAGGGGRGD) [mPEG2-NHS20k-HM-1]: 22.37
mPEG-SC10k-Arg-Gly-Ala-Asp-Arg-Ala-Gly-Gly-Gly-Gly-Arg-Gly-Asp ({mPEG‑SC 10 kDa}-RGADRAGGGGRGD) [mPEG-SC10k-HM-1]: 35.20

Let us move to another entry and its Inhibition rate.
Q: Look up xylene-induced ear swelling in Kunming mice data: Inhibition rate of mPEG2-NHS40k-Arg-Gly-Ala-Asp-Arg-Ala-Gly-Gly-Gly-Gly-Arg-Gly-Asp ({mPEG2‑NHS 40 kDa}-RGADRAGGGGRGD) [mPEG2-NHS40k-HM-1] , then report it.
Ans: 11.52
